Molecular target: human NEP (Homo sapiens, UniProt P08473)
Construct: 1182-ZN
Sequence (P08473 52-750 limits assumed): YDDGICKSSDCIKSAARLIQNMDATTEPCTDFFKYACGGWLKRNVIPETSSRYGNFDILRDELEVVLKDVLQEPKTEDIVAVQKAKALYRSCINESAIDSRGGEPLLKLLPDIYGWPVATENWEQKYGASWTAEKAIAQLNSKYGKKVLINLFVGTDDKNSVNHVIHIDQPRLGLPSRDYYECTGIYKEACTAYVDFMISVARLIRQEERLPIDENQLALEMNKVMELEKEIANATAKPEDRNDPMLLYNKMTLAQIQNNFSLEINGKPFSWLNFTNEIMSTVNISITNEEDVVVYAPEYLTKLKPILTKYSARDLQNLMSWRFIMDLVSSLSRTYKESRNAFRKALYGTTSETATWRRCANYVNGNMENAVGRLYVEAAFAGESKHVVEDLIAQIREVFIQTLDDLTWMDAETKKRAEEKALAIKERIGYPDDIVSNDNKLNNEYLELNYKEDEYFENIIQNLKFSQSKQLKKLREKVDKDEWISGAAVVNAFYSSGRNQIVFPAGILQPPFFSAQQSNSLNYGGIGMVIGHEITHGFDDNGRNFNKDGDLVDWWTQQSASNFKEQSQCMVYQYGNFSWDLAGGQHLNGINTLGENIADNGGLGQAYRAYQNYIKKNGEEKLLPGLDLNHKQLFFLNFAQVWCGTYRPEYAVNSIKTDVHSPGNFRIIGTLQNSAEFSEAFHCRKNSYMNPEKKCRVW
Assay: In vitro enzyme inhibition assay, inhibitor potency at human NEP (Assay 1)
Settings: recombinant human NEP; fluorogenic peptide substrate 10 μM; 37° C.; values given as ranges
pKi: −log10 of the molar value.
# pKi listing for each entry below

{"columns": ["compound", "result"],
 "data": [
  ["O=C(COCc1ccccc1)N[C@H](Cc1ccc(-c2cccc(Cl)c2)cc1)C[C@@H](O)C(=O)O [Example 10-6]", "7.50 to 8.00"],
  ["COCC1CCN(C(=O)C(=O)N[C@H](Cc2ccc(-c3cccc(Cl)c3)cc2)C[C@@H](O)C(=O)O)CC1 [Example 4-19]", "7.50 to 8.00"],
  ["O=C(Cc1ccccc1)C(=O)N[C@H](Cc1ccc(-c2cccc(Cl)c2)cc1)C[C@@H](O)C(=O)O [Example 2-2]", "8.00 to 9.00"],
  ["CCC(=O)C(=O)N[C@H](Cc1ccc(-c2cccc(Cl)c2)cc1)C[C@@H](O)C(=O)O [Example 1]", "8.00 to 9.00"],
  ["O=C(N[C@H](Cc1ccc(-c2cccc(Cl)c2)cc1)C[C@@H](O)C(=O)O)C(=O)N1CCC[C@@H]1CO [Example 4-16]", "8.00 to 9.00"],
  ["Cc1cccc(NNC(=O)C(=O)N[C@H](Cc2ccc(-c3cccc(Cl)c3)cc2)C[C@@H](O)C(=O)O)c1 [Example 6-16]", "8.00 to 9.00"],
  ["O=C(N[C@H](Cc1ccc(-c2cccc(Cl)c2)cc1)C[C@@H](O)C(=O)O)C1CCCCO1 (some centres unmarked) [Example 9]", "8.00 to 9.00"],
  ["O=C(NNc1ccc(Cl)cc1)C(=O)N[C@H](Cc1ccc(-c2cccc(Cl)c2)cc1)C[C@@H](O)C(=O)O [Example 6-13]", "8.00 to 9.00"],
  ["O=C(COc1cccnc1)N[C@H](Cc1ccc(-c2cccc(Cl)c2)cc1)C[C@@H](O)C(=O)O [Example 10-5]", "8.00 to 9.00"],
  ["C[C@H]1COC[C@H](C)N1C(=O)C(=O)N[C@H](Cc1ccc(-c2cccc(Cl)c2)cc1)C[C@@H](O)C(=O)O [Example 4-47]", "8.00 to 9.00"]
]}

# input Any idea what pKi came out for NC(=O)C1CCN(C(=O)C(=O)N[C@H](Cc2ccc(-c3cccc(Cl)c3)cc2)C[C@@H](O)C(=O)O)C1 (some centres unmarked) [Example 4-17] on human NEP (Homo sapiens, UniProt P08473)?
# output 7.50 to 8.00

# input Repeat for the following compound: CS(=O)(=O)N1CCN(C(=O)C(=O)N[C@H](Cc2ccc(-c3cccc(Cl)c3)cc2)C[C@@H](O)C(=O)O)CC1 [Example 4-39]
# output 7.50 to 8.00

# input And COc1cccc(OCC(=O)N[C@H](Cc2ccc(-c3cccc(Cl)c3)cc2)C[C@@H](O)C(=O)O)c1 [Example 10-9] ?
# output 7.50 to 8.00

# input Query O=C(NC1CCCC1)C(=O)N[C@H](Cc1ccc(-c2cccc(Cl)c2)cc1)C[C@@H](O)C(=O)O [Example 4-1] next
# output 7.50 to 8.00
